target: human BLVRB (Homo sapiens, UniProt P30043); construct: pET21; assay: isothermal titration calorimetry; assay type: binding; conditions: read-out: Kd (nM) with NADP^+
Sequence (P30043 2-206): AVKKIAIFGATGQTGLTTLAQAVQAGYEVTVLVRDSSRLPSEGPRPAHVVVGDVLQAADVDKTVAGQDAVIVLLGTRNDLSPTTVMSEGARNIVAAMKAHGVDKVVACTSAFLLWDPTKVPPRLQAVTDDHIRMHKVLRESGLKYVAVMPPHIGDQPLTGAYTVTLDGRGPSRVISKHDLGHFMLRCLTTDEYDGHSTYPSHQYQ

{"columns": ["Compound", "Units Symbol", "Kd"],
 "data": [
  ["NC(=O)c1ccc[n+]([C@@H]2O[C@H](COP(=O)(O)OP(=O)(O)OC[C@H]3O[C@@H](n4cnc5c(N)ncnc54)[C@H](OP(=O)(O)O)[C@@H]3O)[C@@H](O)[C@H]2O)c1 [NADP^+]", "nM", 190]
]}

Values were extracted from paper PMC11675717.
